Measured pKd by item
Molecular target: T1, EsCas13d, nuclease-dead (Eubacterium siraeum, UniProt B0MS50, R295A;H300A;R849A;H854A)
T1 sequence: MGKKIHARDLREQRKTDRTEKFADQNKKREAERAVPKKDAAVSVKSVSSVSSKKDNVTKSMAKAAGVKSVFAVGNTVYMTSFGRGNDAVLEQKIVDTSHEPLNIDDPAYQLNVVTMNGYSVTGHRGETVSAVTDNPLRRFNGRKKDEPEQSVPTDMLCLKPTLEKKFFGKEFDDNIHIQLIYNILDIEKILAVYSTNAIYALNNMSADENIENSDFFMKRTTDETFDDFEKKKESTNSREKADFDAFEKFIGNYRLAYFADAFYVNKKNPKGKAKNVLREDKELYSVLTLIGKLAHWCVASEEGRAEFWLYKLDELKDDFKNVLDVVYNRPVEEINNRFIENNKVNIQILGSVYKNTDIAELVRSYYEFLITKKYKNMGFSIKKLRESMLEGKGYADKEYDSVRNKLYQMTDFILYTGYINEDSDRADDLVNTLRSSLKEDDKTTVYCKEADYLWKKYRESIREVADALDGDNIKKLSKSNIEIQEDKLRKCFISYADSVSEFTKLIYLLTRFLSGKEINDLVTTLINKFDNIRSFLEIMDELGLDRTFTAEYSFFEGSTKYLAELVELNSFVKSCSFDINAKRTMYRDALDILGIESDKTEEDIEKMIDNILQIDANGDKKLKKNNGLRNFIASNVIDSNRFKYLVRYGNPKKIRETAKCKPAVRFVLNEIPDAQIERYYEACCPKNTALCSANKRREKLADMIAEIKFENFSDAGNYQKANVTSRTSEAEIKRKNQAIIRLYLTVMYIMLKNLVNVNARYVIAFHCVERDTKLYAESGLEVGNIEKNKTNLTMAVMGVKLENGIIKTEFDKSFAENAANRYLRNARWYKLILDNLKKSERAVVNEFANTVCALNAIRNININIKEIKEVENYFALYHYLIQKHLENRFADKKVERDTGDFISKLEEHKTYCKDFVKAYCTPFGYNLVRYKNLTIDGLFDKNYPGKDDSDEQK
Experiment: crRNA (strand 1, pre-loaded); Mg2+; 40 mM Tris-HCl pH 7.5, 150 mM NaCl, 6 mM MgCl2, 1 mM DTT, 0.1% Tween-20, 0.2 mg/ml BSA; 25 C; 10 min per concentration, then washed
Conditions: tags: His6-TwinStrep-SUMO cleaved; N-terminal SNAP kept (SNAP-Surface 488); label: 3' end held by stalled T7 RNA polymerase
pKd: −log10 of the molar value.

binder	pKd
target 1 MT 5'PFS AGG 3'PFS UUC (mixed) RNA 1: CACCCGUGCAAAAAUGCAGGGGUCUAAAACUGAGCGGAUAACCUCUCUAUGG RNA 2: GGGAAUGGAUCCACAUCUACGAAUUCAGGCCAUAGAGAGGUUAUCCGCUCAUUCAGAUCGGAAGAGCACACGU	7.48
target 2 MT 5'PFS GAG 3'PFS UCC (mixed) RNA 1: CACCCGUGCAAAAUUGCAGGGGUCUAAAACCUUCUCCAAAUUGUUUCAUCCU RNA 2: GGGAAUGGAUCCACAUCUACGAAUUCGAGAGGAUGAAACAAUUUGGAGAAGUCCAGAUCGGAAGAGCACACGU	7.54
target 1 U19G,C21U (mixed) RNA 1: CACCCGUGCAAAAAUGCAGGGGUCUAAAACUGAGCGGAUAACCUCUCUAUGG RNA 2: GGGAAUGGAUCCACAUCUACGAAUUCGUACUAGAGAGAGGUUAUCCGCUCACCGAGAUCGGAAGAGCACACGU	7.95
target 2 MT 5'PFS UUA 3'PFS AUC (mixed) RNA 1: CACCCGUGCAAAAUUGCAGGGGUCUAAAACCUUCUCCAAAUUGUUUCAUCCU RNA 2: GGGAAUGGAUCCACAUCUACGAAUUCUUAAGGAUGAAACAAUUUGGAGAAGAUCAGAUCGGAAGAGCACACGU	7.51
target 2 MT 5'PFS GCG 3'PFS UGU (mixed) RNA 1: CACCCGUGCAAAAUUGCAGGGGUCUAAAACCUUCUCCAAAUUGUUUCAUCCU RNA 2: GGGAAUGGAUCCACAUCUACGAAUUCGCGAGGAUGAAACAAUUUGGAGAAGUGUAGAUCGGAAGAGCACACGU	7.76
target 3 insG 3' of 2,insG 3' of 2 (mixed) RNA 1: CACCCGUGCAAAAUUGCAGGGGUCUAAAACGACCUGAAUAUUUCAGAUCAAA RNA 2: GGGAAUGGAUCCACAUCUACGAAUUCGUUUUUGAUCUGAAAUAUUCAGGUGGCUGCAGAUCGGAAGAGCACACGU	7.66
target 2 MT 5'PFS UGG 3'PFS CGC (mixed) RNA 1: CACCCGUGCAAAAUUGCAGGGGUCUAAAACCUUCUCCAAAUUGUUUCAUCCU RNA 2: GGGAAUGGAUCCACAUCUACGAAUUCUGGAGGAUGAAACAAUUUGGAGAAGCGCAGAUCGGAAGAGCACACGU	8.24
target 1 insG 3' of 19,insG 3' of 19 (mixed) RNA 1: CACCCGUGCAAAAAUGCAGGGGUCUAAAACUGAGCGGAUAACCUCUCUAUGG RNA 2: GGGAAUGGAUCCACAUCUACGAAUUCGUACCAUGGAGAGAGGUUAUCCGCUCACCGAGAUCGGAAGAGCACACGU	7.25

Origin of values: paper PMC10786891
